# % water in the product annotations
- assay info: Water content by Karl Fischer titration
- Assay type: physicochemical
Structures can show the parent of a compound that is named as a salt.
Form entry: value (%) — number only.

- molecule: "Cc1ccc(NC(=O)c2ccc(CN3CCN(C)CC3)cc2)cc1Nc1nccc(-c2cccnc2)n1 [Example 6, imatinib mesylate]"
  % water in the product (%): 3.8

Ask: Provide % water in the product value for the following molecule: Cc1ccc(NC(=O)c2ccc(CN3CCN(C)CC3)cc2)cc1Nc1nccc(-c2cccnc2)n1 [Example 10, imatinib mesylate]
Result: 3.2

Ask: Provide % water in the product value for the following molecule: Cc1ccc(NC(=O)c2ccc(CN3CCN(C)CC3)cc2)cc1Nc1nccc(-c2cccnc2)n1 [Example 3, imatinib mesylate]
Result: 4.1

Ask: Provide % water in the product value for the following molecule: Cc1ccc(NC(=O)c2ccc(CN3CCN(C)CC3)cc2)cc1Nc1nccc(-c2cccnc2)n1 [Example 1, imatinib mesylate]
Result: 4.1

Ask: Provide % water in the product value for the following molecule: Cc1ccc(NC(=O)c2ccc(CN3CCN(C)CC3)cc2)cc1Nc1nccc(-c2cccnc2)n1 [Example 4, imatinib mesylate]
Result: 3.7

====

# % water in the product annotations
- assay info: Water content by Karl Fischer titration
- Format: physicochemical
Structures can show the parent of a compound that is named as a salt.
Form entry: value (%) — number only.

- molecule: "Cc1ccc(NC(=O)c2ccc(CN3CCN(C)CC3)cc2)cc1Nc1nccc(-c2cccnc2)n1 [Reference Example 1, imatinib mesylate, reference compound]"
  reading unit: "%"
  % water in the product: 2.2
- molecule: "Cc1ccc(NC(=O)c2ccc(CN3CCN(C)CC3)cc2)cc1Nc1nccc(-c2cccnc2)n1 [Example 7, imatinib mesylate]"
  reading unit: "%"
  % water in the product: 4.3
- molecule: "Cc1ccc(NC(=O)c2ccc(CN3CCN(C)CC3)cc2)cc1Nc1nccc(-c2cccnc2)n1 [Reference Example 2, imatinib mesylate, reference compound]"
  reading unit: "%"
  % water in the product: 1.7
- molecule: "Cc1ccc(NC(=O)c2ccc(CN3CCN(C)CC3)cc2)cc1Nc1nccc(-c2cccnc2)n1 [Example 8, imatinib mesylate]"
  reading unit: "%"
  % water in the product: 3.8
- molecule: "Cc1ccc(NC(=O)c2ccc(CN3CCN(C)CC3)cc2)cc1Nc1nccc(-c2cccnc2)n1 [Example 5, imatinib mesylate]"
  reading unit: "%"
  % water in the product: 4.8

Ask: Provide % water in the product value for the following molecule: Cc1ccc(NC(=O)c2ccc(CN3CCN(C)CC3)cc2)cc1Nc1nccc(-c2cccnc2)n1 [Example 9, imatinib mesylate]
Result: 4.9
